Recorded IC50 values (Full-length human PRMT3 (Homo sapiens, UniProt O60678)) are given below.

Q: Identify the measured IC50 of `Cc1[nH]nc(-c2ccc(F)cc2)c1CN(C)CCN` for Full-length human PRMT3 (Homo sapiens, UniProt O60678).
Ans: > 10 µM

Q: Please do the same for `Cc1cc(F)ccc1-c1n[nH]cc1CN(C)CCN` as well.
Ans: 3.01 to 10 µM

Q: Please do the same for `CNCCN(C)Cc1c[nH]nc1-c1ccc(OC)cc1OC` as well.
Ans: > 10 µM

Q: Please do the same for `CN(CCN)Cc1c[nH]nc1-c1cccc(F)c1` as well.
Ans: > 10 µM

Q: Please do the same for `CNCCN(C)Cc1c[nH]nc1-c1ccc(O)cc1` as well.
Ans: > 10 µM

Q: Please do the same for `COc1ccccc1-c1n[nH]cc1CN(C)CCN` as well.
Ans: > 10 µM

Q: Please do the same for `CN(CCN)Cc1c[nH]nc1-c1ccc(C2CC2)cc1` as well.
Ans: 1.01 to 3 µM

Q: Please do the same for `CN(CCN)Cc1n[nH]cc1-c1ccc(Cl)cc1` as well.
Ans: 3.01 to 10 µM

Q: Please do the same for `CC(C)Oc1ccc(-c2n[nH]cc2CN(C)CCN)cc1` as well.
Ans: 3.01 to 10 µM

Q: Please do the same for `CNCCN(C)Cc1c[nH]nc1-c1ccc(F)c(F)c1` as well.
Ans: 3.01 to 10 µM

Q: Please do the same for `CNCCN(C)Cc1c[nH]nc1-c1cccc([N+](=O)[O-])c1` as well.
Ans: 1.01 to 3 µM

Q: Please do the same for `COc1ccc(-c2n[nH]cc2CN(C)CCN)c(C(F)(F)F)c1` as well.
Ans: > 10 µM

Q: Please do the same for `CCN(CC)C(=O)c1ccc(-c2n[nH]cc2CN(C)CCN)cc1` as well.
Ans: 3.01 to 10 µM

Q: Please do the same for `CN(CCN)Cc1c[nH]nc1-c1ccccc1C#N` as well.
Ans: 3.01 to 10 µM

Q: Please do the same for `Cc1ccc(-c2n[nH]cc2CN(C)CCN)cc1` as well.
Ans: 3.01 to 10 µM

Q: Please do the same for `CN(CCN)Cc1c[nH]nc1-c1ccc(C(F)(F)F)c(Cl)c1` as well.
Ans: 1.01 to 3 µM

Q: Please do the same for `CN(CCN)Cc1n[nH]cc1-c1ccc(OC(F)(F)F)cc1` as well.
Ans: 3.01 to 10 µM

Q: Please do the same for `Cc1cc(Cl)ccc1-c1n[nH]cc1CN(C)CCN` as well.
Ans: 3.01 to 10 µM

Q: Please do the same for `CNCCN(C)Cc1c[nH]nc1-c1ccccc1NS(C)(=O)=O` as well.
Ans: > 10 µM

Q: Please do the same for `CNCCN(C)Cc1c[nH]nc1-c1ccc(CO)cc1` as well.
Ans: 0.101 to 1 µM

Q: Please do the same for `CN(CCN)Cc1cnn(C2COC2)c1-c1ccc(F)cc1` as well.
Ans: > 10 µM
